tested on: ERR reporter HEK293 cells; assay: CellTiter-Fluor cell viability assay multiplexed with ERR reporter assay; assay type: cell-based; settings: Homo sapiens, HEK293; primary qHTS, viability counter screen; read-out: ERR-HEK293 Primary Viability EC50 (converted)
readoutType: EC50 (µM)
Just the number please, in µM, no unit attached.

-- ask Indicate the recorded EC50 value for this molecule: CC(C)C[C@H](NC(=O)[C@H](Cc1ccccc1)NC(=O)c1cnccn1)B(O)O
-- reply 0.0656

-- ask Please list EC50 recorded for the molecule COc1cc([C@@H]2c3cc4c(cc3[C@@H](O[C@@H]3O[C@@H]5CO[C@@H](C)O[C@H]5[C@H](O)[C@H]3O)[C@H]3COC(=O)[C@H]23)OCO4)cc(OC)c1O [Etoposide]
-- reply 56.3

-- ask Specify EC50 for CC(C)C[C@H](NC(=O)[C@H](CCc1ccccc1)NC(=O)CN1CCOCC1)C(=O)N[C@@H](Cc1ccccc1)C(=O)N[C@@H](CC(C)C)C(=O)[C@@]1(C)CO1 and stop.
-- reply 0.178

-- ask Annotate the molecule COc1ccc2cc3[n+](cc2c1OC)CCc1cc2c(cc1-3)OCO2 with its measured EC50.
-- reply 12.8

-- ask Tell me EC50 reported for COC(=O)N(OC)c1ccccc1COc1ccn(-c2ccc(Cl)cc2)n1
-- reply 40.9

###

target: ERRα with PGC-1α (PGC/ERR pathway) (Homo sapiens, UniProt P11474); assay: PGC/ERR reporter (luciferase) qHTS assay, PGC/ERR-HEK293; details: PGC/ERR-HEK293 Primary EC50, primary qHTS, 18 h; mean ± SD, triplicate
Sequence (P11474 whole entry): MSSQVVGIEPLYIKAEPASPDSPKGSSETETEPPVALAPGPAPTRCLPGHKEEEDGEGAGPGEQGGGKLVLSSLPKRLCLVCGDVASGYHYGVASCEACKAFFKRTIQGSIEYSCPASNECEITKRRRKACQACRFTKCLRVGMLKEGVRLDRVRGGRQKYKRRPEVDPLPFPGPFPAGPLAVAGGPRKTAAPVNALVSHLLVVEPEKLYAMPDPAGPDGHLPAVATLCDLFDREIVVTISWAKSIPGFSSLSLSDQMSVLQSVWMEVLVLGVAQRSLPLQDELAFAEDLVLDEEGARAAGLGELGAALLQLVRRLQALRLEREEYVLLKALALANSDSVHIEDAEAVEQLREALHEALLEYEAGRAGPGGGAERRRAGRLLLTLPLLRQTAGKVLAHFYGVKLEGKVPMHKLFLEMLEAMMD
pEC50: −log10 of the molar value. Counter-ions that a name gives are not always drawn.
The threshold is inclusive: pEC50 of exactly 6 counts as Criterion met; values below receive Criterion not met.

-- ask For this molecule, is measured pEC50 6 or higher? Cc1nn(C)c(Oc2ccccc2)c1C=NOCc1ccc(C(=O)OC(C)(C)C)cc1 [Fenpyroximate]
-- reply Criterion met

-- ask Would you say CC(C)C[C@H](NC(=O)[C@H](Cc1ccccc1)NC(=O)c1cnccn1)B(O)O [Bortezomib] shows pEC50 at minimum 6?
-- reply Criterion met

-- ask Could you please find out whether COc1ccc2cc3[n+](cc2c1OC)CCc1cc2c(cc1-3)OCO2 [Berberine] has pEC50 that meets 6 or exceeds it?
-- reply Criterion not met

-- ask Could you please find out whether CC[C@@]1(O)C(=O)OCc2c1cc1n(c2=O)Cc2cc3c(CN(C)C)c(O)ccc3nc2-1 [Topotecan hydrochloride] has pEC50 that meets 6 or exceeds it?
-- reply Criterion not met

-- ask Is pEC50 for CO/C=C(/C(=O)OC)c1ccccc1COc1cccc(C(F)(F)F)n1 [Picoxystrobin] at or above 6?
-- reply Criterion not met

###

readoutType: ERR-HEK293 Primary Efficacy (%)
Give the number; % is assumed, so skip it.

-- ask Write ERR-HEK293 Primary Efficacy of CC(C)(C)c1ccc(CSc2cnn(C(C)(C)C)c(=O)c2Cl)cc1 [Pyridaben] ; system used: UniProt P11474
-- reply −77.3

-- ask GET ERR-HEK293 Primary Efficacy where system = UniProt P11474 and item = CO/N=C(/C(=O)OC)c1ccccc1COc1ccccc1C [Kresoxim-methyl]
-- reply −86.6

-- ask Provide the reported ERR-HEK293 Primary Efficacy (system: UniProt P11474) for COC(=O)N(OC)c1ccccc1COc1ccn(-c2ccc(Cl)cc2)n1 [Pyraclostrobin]
-- reply −90.7

-- ask Determine reported ERR-HEK293 Primary Efficacy for CO/C=C(/C(=O)OC)c1ccccc1COc1cccc(C(F)(F)F)n1 [Picoxystrobin] ; test system: UniProt P11474.
-- reply −83.9
